Molecular target: recombinant h (human) furin (Homo sapiens, UniProt P09958)
Construct: pure soluble recombinant h (human) furin; purchased New England Biolabs
Sequence (P09958 108-715 limits assumed): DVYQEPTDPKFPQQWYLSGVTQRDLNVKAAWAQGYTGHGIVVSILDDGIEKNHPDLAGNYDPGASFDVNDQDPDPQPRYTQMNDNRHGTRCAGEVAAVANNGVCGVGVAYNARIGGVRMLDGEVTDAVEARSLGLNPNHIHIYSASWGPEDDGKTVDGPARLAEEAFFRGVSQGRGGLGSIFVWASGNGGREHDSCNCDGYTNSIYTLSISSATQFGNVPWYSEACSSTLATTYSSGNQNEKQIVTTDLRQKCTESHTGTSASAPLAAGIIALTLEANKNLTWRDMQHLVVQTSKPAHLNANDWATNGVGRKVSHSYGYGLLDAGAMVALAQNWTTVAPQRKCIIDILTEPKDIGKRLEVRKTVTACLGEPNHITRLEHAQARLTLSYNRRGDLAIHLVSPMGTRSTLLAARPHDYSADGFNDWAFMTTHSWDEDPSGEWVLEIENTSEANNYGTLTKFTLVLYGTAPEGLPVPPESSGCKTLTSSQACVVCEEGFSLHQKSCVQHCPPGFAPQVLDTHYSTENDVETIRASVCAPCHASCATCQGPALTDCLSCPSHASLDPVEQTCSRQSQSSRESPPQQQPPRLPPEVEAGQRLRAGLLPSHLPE
Assay: In vitro furin assay with Boc-RVRR-MCA (50 µM), aromatic enediyne compounds
Type: biochemical
Conditions: read-out: IC50 for inhibition of furin; Boc-RVRR-MCA 50 µM final concentration
Test Readout: IC50 (µM)
The figure you give is taken to be in µM; do not add the unit.

Return value of IC50 for input Cc1ccc(S(=O)(=O)N2CC#Cc3ccccc3C#CCN(S(=O)(=O)c3ccc(C)cc3)c3cccc2c3)cc1 , no commentary.
14.2

====

Molecular target: recombinant m (mouse) PC5 (Mus musculus, UniProt Q04592)
Construct: made in house
Sequence (Q04592 117-1877): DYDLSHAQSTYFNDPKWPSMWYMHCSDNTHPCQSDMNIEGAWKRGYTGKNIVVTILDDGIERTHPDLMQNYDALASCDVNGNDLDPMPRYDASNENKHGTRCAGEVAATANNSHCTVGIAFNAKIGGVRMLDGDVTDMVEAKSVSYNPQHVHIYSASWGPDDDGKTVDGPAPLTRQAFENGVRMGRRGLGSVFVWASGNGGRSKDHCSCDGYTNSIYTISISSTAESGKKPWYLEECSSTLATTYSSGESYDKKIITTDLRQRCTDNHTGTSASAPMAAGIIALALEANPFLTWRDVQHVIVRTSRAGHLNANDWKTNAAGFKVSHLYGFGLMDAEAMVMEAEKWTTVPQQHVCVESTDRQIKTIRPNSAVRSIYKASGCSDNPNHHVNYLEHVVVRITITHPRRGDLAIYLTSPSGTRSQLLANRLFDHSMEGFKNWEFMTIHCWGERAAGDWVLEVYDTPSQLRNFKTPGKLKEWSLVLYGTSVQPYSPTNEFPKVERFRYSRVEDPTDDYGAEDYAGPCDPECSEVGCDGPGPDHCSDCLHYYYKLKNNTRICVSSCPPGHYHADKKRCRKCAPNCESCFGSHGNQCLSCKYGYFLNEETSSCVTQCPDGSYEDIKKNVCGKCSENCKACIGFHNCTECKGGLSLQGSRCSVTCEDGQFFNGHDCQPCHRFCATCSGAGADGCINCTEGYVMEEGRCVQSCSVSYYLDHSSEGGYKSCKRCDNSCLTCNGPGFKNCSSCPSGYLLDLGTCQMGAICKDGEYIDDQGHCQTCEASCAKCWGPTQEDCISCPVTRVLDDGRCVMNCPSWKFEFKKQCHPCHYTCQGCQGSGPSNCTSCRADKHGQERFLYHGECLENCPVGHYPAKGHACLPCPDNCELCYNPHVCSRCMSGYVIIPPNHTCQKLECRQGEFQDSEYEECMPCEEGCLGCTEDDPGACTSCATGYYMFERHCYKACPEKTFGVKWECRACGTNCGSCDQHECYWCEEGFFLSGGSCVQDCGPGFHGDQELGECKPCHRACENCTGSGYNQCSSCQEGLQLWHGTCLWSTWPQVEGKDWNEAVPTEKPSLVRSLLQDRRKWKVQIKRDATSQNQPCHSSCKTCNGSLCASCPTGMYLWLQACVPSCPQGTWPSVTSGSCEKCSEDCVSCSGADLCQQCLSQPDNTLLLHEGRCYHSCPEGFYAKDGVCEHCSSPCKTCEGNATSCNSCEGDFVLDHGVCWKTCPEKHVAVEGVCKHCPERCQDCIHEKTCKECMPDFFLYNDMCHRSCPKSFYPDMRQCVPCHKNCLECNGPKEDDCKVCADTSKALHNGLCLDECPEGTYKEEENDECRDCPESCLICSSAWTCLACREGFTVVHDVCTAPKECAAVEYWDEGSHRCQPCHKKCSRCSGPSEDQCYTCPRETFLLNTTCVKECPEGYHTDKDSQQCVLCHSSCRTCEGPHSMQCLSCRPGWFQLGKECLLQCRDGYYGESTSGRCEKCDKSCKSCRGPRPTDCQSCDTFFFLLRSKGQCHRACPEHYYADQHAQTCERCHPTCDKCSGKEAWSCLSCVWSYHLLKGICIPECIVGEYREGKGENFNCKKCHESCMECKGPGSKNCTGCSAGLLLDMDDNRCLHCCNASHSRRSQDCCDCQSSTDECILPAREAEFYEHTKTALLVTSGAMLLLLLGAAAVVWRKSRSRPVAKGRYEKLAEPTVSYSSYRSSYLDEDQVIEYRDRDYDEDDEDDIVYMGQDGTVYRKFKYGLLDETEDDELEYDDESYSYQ
Assay: In vitro PC5 assay with Boc-RVRR-MCA (50 µM), aromatic enediyne compounds
Assay type: biochemical
Conditions: read-out: IC50 for inhibition of PC5; Boc-RVRR-MCA 50 µM final concentration
Test Readout: pIC50
In simple prose, pIC50 is minus the logarithm base ten of a concentration in moles per litre.

Please report the measured pIC50 for Cc1ccc(S(=O)(=O)N2CC#Cc3ccccc3C#CCN(S(=O)(=O)c3ccc(C)cc3)c3cccc2c3)cc1
4.76
